# System: Oryza sativa, (L.) Tebonnet
# ASSAY_PROTOCOL: Rice tolerance to post-transplant applications under flooded paddy conditions (Example 187), ORYSAT (Rice, Tebonnet); for herbicidal effect rating ORYSAT: meaning of each grade not given here
# MEASUREMENT_CONDITIONS: Rate 0.2500 kg/ha, rated three to four weeks after treatment
VALUE_TYPE: herbicidal effect rating ORYSAT
Format: numeric value only, no unit, no commentary.

Please report the recorded herbicidal effect rating ORYSAT for COC(=O)COc1ccc(OC)cc1-c1nsc2ccc(-n3c(=O)cc(C(F)(F)F)n(C)c3=O)cc12 .
9.0

Given C=CCOC(C)c1nsc2ccc(-n3c(=O)cc(C(F)(F)F)n(C)c3=O)cc12 (stereo not shown) , state its recorded herbicidal effect rating ORYSAT.
9.0

Please give the measured herbicidal effect rating ORYSAT for this compound: Cn1c(C(F)(F)F)cc(=O)n(-c2ccc3snc(C(C)(Br)Br)c3c2)c1=O
9.0

Request the reported herbicidal effect rating ORYSAT associated with Cn1c(C(F)(F)F)cc(=O)n(-c2ccc3snc(-c4ccccc4OCC(=O)O)c3c2)c1=O
7.5

====

# Tested on: Oryza sativa, (L.) Tebonnet
# ASSAY_PROTOCOL: Rice tolerance to post-transplant applications under flooded paddy conditions (Example 187), ORYSAT (Rice, Tebonnet); for herbicidal effect rating ORYSAT: meaning of each grade not given here
# MEASUREMENT_CONDITIONS: Rate 0.1250 kg/ha, rated three to four weeks after treatment
VALUE_TYPE: herbicidal effect rating ORYSAT
Answer field: number only, no words.

I have this molecule here, COCc1nsc2cc(F)c(-n3c(=O)cc(C(F)(F)F)n(C)c3=O)cc12 [Example 378] , and I need its recorded herbicidal effect rating ORYSAT.
9.0

So what's the measured herbicidal effect rating ORYSAT for this one? C=CS(=O)(=O)NC(=O)C(C)Oc1ccc(C)cc1-c1nsc2ccc(-n3c(=O)cc(C(F)(F)F)n(C)c3=O)cc12 (stereo not drawn) [Example 570]
2.0

I would be grateful if you could share the reported herbicidal effect rating ORYSAT for Cn1c(C(F)(F)F)cc(=O)n(-c2ccc3snc(C(=O)Oc4ccc(F)cc4)c3c2)c1=O [Example 320] .
2.0

# query: herbicidal effect rating ORYSAT of entry Cn1c(C(F)(F)F)cc(=O)n(-c2ccc3snc(C(C#N)(Cc4ccccc4)Cc4ccccc4)c3c2)c1=O [Example 582]
0.0

Which measured herbicidal effect rating ORYSAT value corresponds to Cn1c(C(F)(F)F)cc(=O)n(-c2ccc3snc(C(C#N)=Cc4ccc[nH]4)c3c2)c1=O [Example 598] ?
3.0

Requested read-out: herbicidal effect rating ORYSAT. Entry: CC(=O)NCCOC(=O)c1nsc2ccc(-n3c(=O)cc(C(F)(F)F)n(C)c3=O)cc12 [Example 387]
2.0

Which herbicidal effect rating ORYSAT value belongs to CC(Oc1ccccc1-c1nsc2ccc(-n3c(=O)cc(C(F)(F)F)n(C)c3=O)cc12)C(=O)NS(C)(=O)=O (stereo not drawn) [Example 335] ?
5.0

herbicidal effect rating ORYSAT lookup needed for CN(C(=O)c1nsc2ccc(-n3c(=O)cc(C(F)(F)F)n(C)c3=O)cc12)S(C)(=O)=O [Example 367] , thanks.
5.0

I'd like to know its herbicidal effect rating ORYSAT. The molecule in question is COC(=O)COc1ccc(OC)cc1-c1nsc2ccc(-n3c(=O)cc(C(F)(F)F)n(C)c3=O)cc12 [Example 347]
7.0

For the molecule CC(c1nsc2ccc(-n3c(=O)cc(C(F)(F)F)n(C)c3=O)cc12)S(C)(=O)=O (stereo not drawn) [Example 590] , what herbicidal effect rating ORYSAT is on record?
5.0

Report herbicidal effect rating ORYSAT for Cn1c(C(F)(F)F)cc(=O)n(-c2ccc3snc(C(=O)NS(=O)(=O)c4ccccc4)c3c2)c1=O [Example 352] please.
2.5

Returns the measured herbicidal effect rating ORYSAT for the input molecule. Input: COC(=O)c1nsc2ccc(-n3c(=O)cc(C(F)(F)F)n(C)c3=O)cc12 [Example 318]
5.0

herbicidal effect rating ORYSAT for CCCCCCCCCCCCS(=O)(=O)NC(=O)c1nsc2ccc(-n3c(=O)cc(C(F)(F)F)n(C)c3=O)cc12 [Example 358] ?
3.0

Which herbicidal effect rating ORYSAT value belongs to Cn1c(C(F)(F)F)cc(=O)n(-c2ccc3snc(C(C#N)=Cc4ccc(O)cc4)c3c2)c1=O [Example 600] ?
4.0

So what's the measured herbicidal effect rating ORYSAT for this one? Cn1c(C(F)(F)F)cc(=O)n(-c2cc3c(CC#N)nsc3cc2F)c1=O [Example 379]
9.0

====

# Tested on: Oryza sativa, (L.) Tebonnet
# ASSAY_PROTOCOL: Rice tolerance to post-transplant applications under flooded paddy conditions (Example 187), ORYSAT (Rice, Tebonnet)
# MEASUREMENT_CONDITIONS: 0.0625 kg/ha, rated three to four weeks after treatment
VALUE_TYPE: herbicidal effect rating, ORYSAT (rice tolerance)
The reply should be a number, written without any unit.

Please tell me: herbicidal effect rating, ORYSAT (rice tolerance) of COC(=O)COc1cc(C)c(C)cc1-c1nsc2ccc(-n3c(=O)cc(C(F)(F)F)n(C)c3=O)cc12 , system Oryza sativa, (L.) Tebonnet?
7.0

Notebook: pull reported herbicidal effect rating, ORYSAT (rice tolerance) for Oryza sativa, (L.) Tebonnet, entry Cc1ccc(O)c(-c2noc3ccc(-n4c(=O)cc(C(F)(F)F)n(C)c4=O)c(Cl)c23)c1
0.0

// map COCCOC(=O)COc1ccc(C)cc1-c1nsc2ccc(-n3c(=O)cc(C(F)(F)F)n(C)c3=O)cc12 to recorded herbicidal effect rating, ORYSAT (rice tolerance) (system: Oryza sativa, (L.) Tebonnet)
2.0

Request body: readout herbicidal effect rating, ORYSAT (rice tolerance), system Oryza sativa, (L.) Tebonnet, query Cn1c(C(F)(F)F)cc(=O)n(-c2ccc3snc(Br)c3c2)c1=O . Return the value.
1.0

# value lookup — system Oryza sativa, (L.) Tebonnet, readout herbicidal effect rating, ORYSAT (rice tolerance), item C=CCOCc1nsc2ccc(-n3c(=O)cc(C(F)(F)F)n(C)c3=O)cc12
6.0

Lookup: herbicidal effect rating, ORYSAT (rice tolerance) / Oryza sativa, (L.) Tebonnet / Cn1c(C(F)(F)F)cc(=O)n(-c2ccc3snc(CP(=O)(O)O)c3c2)c1=O
5.0

What reported herbicidal effect rating, ORYSAT (rice tolerance) corresponds to Cc1ccc(S(=O)(=O)NC(=O)COc2ccc(C)cc2-c2nsc3ccc(-n4c(=O)cc(C(F)(F)F)n(C)c4=O)cc23)cc1 on Oryza sativa, (L.) Tebonnet?
3.0

Find herbicidal effect rating, ORYSAT (rice tolerance) (Oryza sativa, (L.) Tebonnet) for the entry COC(=O)C(C)Oc1ccc(C(C)C)cc1-c1nsc2ccc(-n3c(=O)cc(C(F)(F)F)n(C)c3=O)cc12 (stereo not drawn)
3.0

Item Cn1c(C(F)(F)F)cc(=O)n(-c2ccc3snc(COC(=O)c4ccccc4)c3c2)c1=O with Oryza sativa, (L.) Tebonnet - herbicidal effect rating, ORYSAT (rice tolerance)?
3.0

Notebook entry, Oryza sativa, (L.) Tebonnet assay: herbicidal effect rating, ORYSAT (rice tolerance) of COC(=O)C(C)Oc1c(C)cc(C)cc1-c1nsc2ccc(-n3c(=O)cc(C(F)(F)F)n(C)c3=O)cc12 (stereo not drawn) = ?
3.0

What herbicidal effect rating, ORYSAT (rice tolerance) appears in the records for this compound with Oryza sativa, (L.) Tebonnet? COC(=O)COc1ccc(C)cc1-c1nsc2ccc(-n3c(=O)cc(C(F)(F)F)n(C)c3=O)cc12
3.0

Entry Cn1c(C(F)(F)F)cc(=O)n(-c2ccc3onc(-c4ccccc4)c3c2)c1=O , system Oryza sativa, (L.) Tebonnet: what herbicidal effect rating, ORYSAT (rice tolerance) was measured?
6.0

Give the reported herbicidal effect rating, ORYSAT (rice tolerance) for Cc1ccc(OC(C)C)c(-c2nsc3ccc(-n4c(=O)cc(C(F)(F)F)n(C)c4=O)cc23)c1 (system: Oryza sativa, (L.) Tebonnet).
3.0

Which herbicidal effect rating, ORYSAT (rice tolerance) is reported with Oryza sativa, (L.) Tebonnet for this entry: Cn1c(C(F)(F)F)cc(=O)n(-c2ccc3snc(NS(C)(=O)=O)c3c2)c1=O ?
0.0

Request: herbicidal effect rating, ORYSAT (rice tolerance), test system Oryza sativa, (L.) Tebonnet, entry COc1ccccc1Oc1noc2ccc(-n3c(=O)cc(C(F)(F)F)n(C)c3=O)cc12
2.0

Please provide the recorded herbicidal effect rating, ORYSAT (rice tolerance) for C=CCOc1ccc(C)cc1-c1nsc2ccc(-n3c(=O)cc(C(F)(F)F)n(C)c3=O)cc12 , tested on Oryza sativa, (L.) Tebonnet.
0.0

Provide value of herbicidal effect rating, ORYSAT (rice tolerance) for this record tested with Oryza sativa, (L.) Tebonnet: Cc1noc2cc(F)c(-n3c(=O)cc(C(F)(F)F)n(C)c3=O)cc12
6.5

Provide value of herbicidal effect rating, ORYSAT (rice tolerance) for this record tested with Oryza sativa, (L.) Tebonnet: COC(=O)COc1c(C)cc(C)cc1-c1nsc2ccc(-n3c(=O)cc(C(F)(F)F)n(C)c3=O)cc12
4.0

Kindly state the measured herbicidal effect rating, ORYSAT (rice tolerance) obtained for COC(=O)C(C)Oc1cc(C)c(C)cc1-c1nsc2ccc(-n3c(=O)cc(C(F)(F)F)n(C)c3=O)cc12 (stereo not drawn) with Oryza sativa, (L.) Tebonnet.
6.0

Query herbicidal effect rating, ORYSAT (rice tolerance) on Oryza sativa, (L.) Tebonnet for Cc1cc(O)c(-c2nsc3ccc(-n4c(=O)cc(C(F)(F)F)n(C)c4=O)cc23)cc1C
2.0

Param readout= herbicidal effect rating, ORYSAT (rice tolerance); system= Oryza sativa, (L.) Tebonnet; entry= COC(=O)COc1ccc(C)cc1-c1nsc2ccc(-n3c(=O)cc(C)n(C)c3=O)cc12 ; returns value.
0.0

Tell me reported herbicidal effect rating, ORYSAT (rice tolerance) for CSCc1nsc2ccc(-n3c(=O)cc(C(F)(F)F)n(C)c3=O)cc12 , tested with Oryza sativa, (L.) Tebonnet.
2.0

Recall the recorded herbicidal effect rating, ORYSAT (rice tolerance) for Cn1c(C(F)(F)F)cc(=O)n(-c2ccc3snc(N4CCOCC4)c3c2)c1=O with Oryza sativa, (L.) Tebonnet and state it.
0.0

Recall the recorded herbicidal effect rating, ORYSAT (rice tolerance) for Cc1ccc(OC(C)C#N)c(-c2nsc3ccc(-n4c(=O)cc(C(F)(F)F)n(C)c4=O)cc23)c1 (stereo not drawn) with Oryza sativa, (L.) Tebonnet and state it.
2.0

Field: herbicidal effect rating, ORYSAT (rice tolerance) (Oryza sativa, (L.) Tebonnet). Entry: CCOCc1nsc2ccc(-n3c(=O)cc(C(F)(F)F)n(C)c3=O)cc12
7.0

State its herbicidal effect rating, ORYSAT (rice tolerance) on Oryza sativa, (L.) Tebonnet: COC(=O)C(C)Oc1ccccc1Oc1noc2ccc(-n3c(=O)cc(C(F)(F)F)n(C)c3=O)cc12 (stereo not drawn)
2.5

Query for Oryza sativa, (L.) Tebonnet: what herbicidal effect rating, ORYSAT (rice tolerance) does the record show for COCc1nsc2ccc(-n3c(=O)cc(C(F)(F)F)n(C)c3=O)cc12 ?
8.0
